# IC50, inhibition of 100 pM GCG-stimulated luciferase activity, mfGCGR reporter cells annotations
# MEASURED_TARGET: T1, monkey (Macaca fascicularis) GCGR (full-length, on HEK293 reporter cells) (monkey (Macaca fascicularis), UniProt P47871 26-477 (human entry))
# T1 chain: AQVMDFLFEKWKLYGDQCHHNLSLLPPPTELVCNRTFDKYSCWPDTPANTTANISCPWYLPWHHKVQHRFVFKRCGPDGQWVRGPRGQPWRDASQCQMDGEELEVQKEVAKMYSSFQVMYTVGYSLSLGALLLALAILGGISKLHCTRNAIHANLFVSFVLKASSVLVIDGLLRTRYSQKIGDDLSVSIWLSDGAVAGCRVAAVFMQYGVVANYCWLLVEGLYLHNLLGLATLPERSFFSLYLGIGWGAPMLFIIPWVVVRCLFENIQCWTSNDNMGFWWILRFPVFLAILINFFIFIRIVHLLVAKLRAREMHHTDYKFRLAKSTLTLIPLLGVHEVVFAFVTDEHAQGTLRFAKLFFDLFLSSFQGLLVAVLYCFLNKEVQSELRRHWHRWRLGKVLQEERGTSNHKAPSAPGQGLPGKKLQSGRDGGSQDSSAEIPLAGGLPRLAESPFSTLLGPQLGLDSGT
# TEST_SUMMARY: cell-based or functional assay
Please reply with the bare figure in nM and do not write the unit itself.

[
  {
    "BINDER": "H4H1321P (antibody, V domains shown, Fully human anti-GCGR antibody; the controls are called isotype-matched hIgG4) VH: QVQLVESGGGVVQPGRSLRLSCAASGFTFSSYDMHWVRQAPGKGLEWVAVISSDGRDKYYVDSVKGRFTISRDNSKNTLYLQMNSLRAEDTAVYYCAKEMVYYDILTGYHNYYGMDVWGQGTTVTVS VL: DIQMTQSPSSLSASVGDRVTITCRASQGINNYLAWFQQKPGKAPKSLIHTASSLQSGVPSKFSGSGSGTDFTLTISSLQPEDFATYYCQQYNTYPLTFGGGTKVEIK",
    "VALUE_OBSERVED": 4.03
  }
]

Kindly consider the entry below.
I am curious: what IC50, inhibition of 100 pM GCG-stimulated luciferase activity, mfGCGR reporter cells value has been reported for H4H1339P (antibody, V domains shown, Fully human anti-GCGR antibody; the controls are called isotype-matched hIgG4) VH: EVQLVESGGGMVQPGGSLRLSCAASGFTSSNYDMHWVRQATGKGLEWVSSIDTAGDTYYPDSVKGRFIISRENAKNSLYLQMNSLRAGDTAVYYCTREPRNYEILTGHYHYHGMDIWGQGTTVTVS VL: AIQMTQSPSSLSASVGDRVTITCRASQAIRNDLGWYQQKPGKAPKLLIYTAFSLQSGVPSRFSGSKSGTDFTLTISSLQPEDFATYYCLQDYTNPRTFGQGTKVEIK ?
2.85
